tested_target: unphosphorylated PDGFRβ kinase (uPDGFRβ, Seq. ID No. 3) (Homo sapiens, UniProt P09619)
Sequence (P09619 557-1106): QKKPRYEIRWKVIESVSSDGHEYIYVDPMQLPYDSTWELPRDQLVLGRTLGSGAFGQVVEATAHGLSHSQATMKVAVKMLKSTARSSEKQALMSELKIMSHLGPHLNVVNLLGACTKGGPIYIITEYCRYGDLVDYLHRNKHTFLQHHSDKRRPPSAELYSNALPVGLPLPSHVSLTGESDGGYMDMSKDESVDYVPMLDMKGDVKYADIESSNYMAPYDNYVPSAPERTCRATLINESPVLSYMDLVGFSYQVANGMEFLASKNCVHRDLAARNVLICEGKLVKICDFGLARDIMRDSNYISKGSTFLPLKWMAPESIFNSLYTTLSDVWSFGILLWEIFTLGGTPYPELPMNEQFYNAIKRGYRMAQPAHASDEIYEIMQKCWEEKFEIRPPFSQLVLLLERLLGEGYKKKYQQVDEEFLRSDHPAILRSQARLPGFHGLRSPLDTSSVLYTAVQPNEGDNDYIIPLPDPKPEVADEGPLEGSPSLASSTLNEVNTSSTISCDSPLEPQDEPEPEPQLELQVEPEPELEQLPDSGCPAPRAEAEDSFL
test_summary: uPDGFRβ kinase assay (ADP production coupled to pyruvate kinase/lactate dehydrogenase)
setup_conditions: enzymatic assay, ATP 500 μM
pIC50: −log10 of the molar value.

[
  {
    "smiles_entry": "CC(=O)Nc1cc(Oc2ccc(-c3cnc(NC(C)C)[nH]c3=O)nc2C)ccn1",
    "pIC50": "6.00 to 7.00"
  },
  {
    "smiles_entry": "Cc1cc(-c2cnc(N3CCCC3)[nH]c2=O)ncc1Oc1ccnc(-c2cnn(C)c2)c1",
    "pIC50": "6.00 to 7.00"
  },
  {
    "smiles_entry": "Cc1nc(-c2cnc(NC(C)(C)C)[nH]c2=O)ccc1Oc1ccnc(-c2cnn(C)c2)c1",
    "pIC50": "7.00 to 8.00"
  },
  {
    "smiles_entry": "CCNc1ncc(-c2ccc(Oc3ccnc(-c4cnn(C)c4)c3)c(C)n2)c(=O)n1C",
    "pIC50": "< 6.00"
  },
  {
    "smiles_entry": "Cc1nc(-c2cnc(NC3CC3)[nH]c2=O)ccc1Oc1ccnc(-c2cnn(C)c2)c1",
    "pIC50": "< 6.00"
  },
  {
    "smiles_entry": "Cc1cc(-c2cnc(NC(C)C)[nH]c2=O)ncc1Oc1ccnc(-c2cnn(C)c2)c1",
    "pIC50": "7.00 to 8.00"
  },
  {
    "smiles_entry": "COC[C@H]1CCCN1c1ncc(-c2ccc(Oc3ccnc(-c4cnn(C)c4)c3)c(C)n2)c(=O)[nH]1",
    "pIC50": "< 6.00"
  },
  {
    "smiles_entry": "Cc1nc(-c2cnc(N(C)C)[nH]c2=O)ccc1Oc1ccnc(-c2cnn(C)c2)c1",
    "pIC50": "< 6.00"
  },
  {
    "smiles_entry": "Cc1nc(-c2cnc(N3CCCC3)[nH]c2=O)ccc1Oc1ccnc(-c2cnn(C)c2)c1",
    "pIC50": "< 6.00"
  },
  {
    "smiles_entry": "Cc1nc(-c2cnc(NC(C)C)n(C)c2=O)ccc1Oc1ccnc(-c2cnn(C)c2)c1",
    "pIC50": "< 6.00"
  },
  {
    "smiles_entry": "Cc1nc(-c2cnc(NC3CCCC3)[nH]c2=O)ccc1Oc1ccnc(-c2cnn(C)c2)c1",
    "pIC50": "6.00 to 7.00"
  },
  {
    "smiles_entry": "Cc1nc(-c2cnc(N3CCC(F)(F)C3)[nH]c2=O)ccc1Oc1ccnc(-c2cnn(C)c2)c1",
    "pIC50": "< 6.00"
  },
  {
    "smiles_entry": "CCNc1ncc(-c2ccc(Oc3ccnc(-n4cnc(C)c4)c3)c(C)n2)c(=O)[nH]1",
    "pIC50": "< 6.00"
  },
  {
    "smiles_entry": "CCNc1ncc(-c2ccc(Oc3ccnc(-c4ccc(C)nc4)c3)c(C)n2)c(=O)[nH]1",
    "pIC50": "< 6.00"
  },
  {
    "smiles_entry": "Cc1nc(-c2cnc(N3CCCCC3)[nH]c2=O)ccc1Oc1ccnc(-c2cnn(C)c2)c1",
    "pIC50": "< 6.00"
  },
  {
    "smiles_entry": "CCn1cc(-c2cc(Oc3ccc(-c4cnc(NC(C)C)[nH]c4=O)nc3C)ccn2)cn1",
    "pIC50": "< 6.00"
  }
]

###

tested_target: phospho-FMS in THP-1 cells (Homo sapiens, UniProt P07333)
Construct: endogenous in cells
test_summary: Phospho-FMS ELISA assay in THP-1 cells
setup_conditions: 4 hours compound, M-CSF stimulation 5 minutes, read-out: pFMS inhibition in THP-1 cells
Procedure: Cells were allowed to expand until reaching 70-95% confluency at which point they were subcultured or harvested for assay use. In a separate 96 well black clear bottom plate, one hundred and fifty thousand THP-1 cells were added per well in 100 μL in assay medium. Fifty microliters of diluted compound was then added to the cells. Plates were incubated for 4 hours at 37 degrees Celsius, 5% CO2, 95% humidity. […]
Known IC50 of a selection of compounds
measure: IC50

[
  {
    "smiles_entry": "COC[C@@H](C)Nc1ncc(-c2ccc(Oc3ccnc(-c4cnn(C)c4)c3)c(C)n2)c(=O)[nH]1",
    "measure": "IC50",
    "reported_measurement": "100 to 1000 nM"
  },
  {
    "smiles_entry": "Cc1nc(-c2cnc(NCC(C)(C)C)[nH]c2=O)ccc1Oc1ccnc(-c2cnn(C)c2)c1",
    "measure": "IC50",
    "reported_measurement": "10 to 100 nM"
  },
  {
    "smiles_entry": "Cc1nc(-c2cnc(NC(C)(C)C)[nH]c2=O)ccc1Oc1ccnc(-c2cnn(C)c2)c1",
    "measure": "IC50",
    "reported_measurement": "10 to 100 nM"
  },
  {
    "smiles_entry": "Cc1nc(-c2cnc(N3CCC(F)(F)C3)[nH]c2=O)ccc1Oc1ccnc(-c2cnn(C)c2)c1",
    "measure": "IC50",
    "reported_measurement": "10 to 100 nM"
  },
  {
    "smiles_entry": "CCNc1ncc(-c2ccc(Oc3ccnc(-c4cnn(C)c4)c3)c(C)n2)c(=O)n1C",
    "measure": "IC50",
    "reported_measurement": "10 to 100 nM"
  }
]

###

Known IC50 of a selection of compounds
tested_target: unphosphorylated PDGFRβ kinase (uPDGFRβ, Seq. ID No. 3) (Homo sapiens, UniProt P09619)
test_summary: uPDGFRβ kinase assay (ADP production coupled to pyruvate kinase/lactate dehydrogenase)
setup_conditions: enzymatic assay, ATP 500 μM
measure: IC50

[
  {
    "smiles_entry": "CNc1ncc(-c2ccc(Oc3ccnc(-c4cnn(C)c4)c3)c(C)n2)c(=O)[nH]1",
    "measure": "IC50",
    "reported_measurement": "> 1 µM"
  },
  {
    "smiles_entry": "Cc1nc(-c2cnc(NC(C)C)[nH]c2=O)ccc1Oc1ccnc(-c2cnn(C)c2)c1",
    "measure": "IC50",
    "reported_measurement": "> 1 µM"
  },
  {
    "smiles_entry": "CCNc1ncc(-c2ccc(Oc3ccnc(-c4cnn(C)c4)c3)c(C)n2)c(=O)[nH]1",
    "measure": "IC50",
    "reported_measurement": "> 1 µM"
  },
  {
    "smiles_entry": "Cc1nc(-c2cnc(NCC(C)(C)C)[nH]c2=O)ccc1Oc1ccnc(-c2cnn(C)c2)c1",
    "measure": "IC50",
    "reported_measurement": "0.1 to 1 µM"
  },
  {
    "smiles_entry": "COC[C@@H](C)Nc1ncc(-c2ccc(Oc3ccnc(-c4cnn(C)c4)c3)c(C)n2)c(=O)[nH]1",
    "measure": "IC50",
    "reported_measurement": "> 1 µM"
  },
  {
    "smiles_entry": "Cc1nc(-c2cnc(NC3CCOCC3)[nH]c2=O)ccc1Oc1ccnc(-c2cnn(C)c2)c1",
    "measure": "IC50",
    "reported_measurement": "> 1 µM"
  }
]

###

Tested on: osteoclast precursors
test_summary: Osteoclast tartrate-resistant acid phosphatase assay
Format: cell-based
setup_conditions: tartrate-resistant acid phosphatase activity, RANKL and M-CSF, 7-14 days
pIC50: −log10 of the molar value.
measure: pIC50

[
  {
    "molecule": "CCNc1ncc(-c2ccc(Oc3ccnc(-c4ccc(C)nc4)c3)c(C)n2)c(=O)[nH]1 [Example 4]",
    "reported_measurement": "6.00 to 7.00"
  },
  {
    "molecule": "CCNc1ncc(-c2ccc(Oc3ccnc(-n4cnc(C)c4)c3)c(C)n2)c(=O)[nH]1 [Example 5]",
    "reported_measurement": "6.00 to 7.00"
  },
  {
    "molecule": "CCNc1ncc(-c2ccc(Oc3ccnc(-c4cnn(C)c4)c3)c(C)n2)c(=O)n1C [Example 25]",
    "reported_measurement": "7.00 to 8.00"
  },
  {
    "molecule": "Cc1cc(-c2cnc(N3CCCC3)[nH]c2=O)ncc1Oc1ccnc(-c2cnn(C)c2)c1 [Example 20]",
    "reported_measurement": "> 8.00"
  }
]

###

Known IC50 of a selection of compounds
tested_target: unphosphorylated c-FMS kinase (uFMS, Seq. ID no. 1) (Homo sapiens, UniProt P07333)
Sequence (P07333 538-972): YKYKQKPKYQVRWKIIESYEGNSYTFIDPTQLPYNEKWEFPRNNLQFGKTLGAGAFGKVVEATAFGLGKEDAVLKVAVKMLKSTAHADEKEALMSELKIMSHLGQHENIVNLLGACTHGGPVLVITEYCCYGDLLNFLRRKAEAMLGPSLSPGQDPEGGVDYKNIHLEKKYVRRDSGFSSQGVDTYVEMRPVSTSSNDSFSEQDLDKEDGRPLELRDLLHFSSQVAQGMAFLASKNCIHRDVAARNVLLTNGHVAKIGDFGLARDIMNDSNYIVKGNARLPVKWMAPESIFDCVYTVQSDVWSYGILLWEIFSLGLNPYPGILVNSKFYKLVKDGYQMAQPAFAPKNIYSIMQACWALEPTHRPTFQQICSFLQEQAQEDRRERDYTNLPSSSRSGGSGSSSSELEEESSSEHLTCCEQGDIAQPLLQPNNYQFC
test_summary: uFMS kinase assay (ADP production coupled to pyruvate kinase/lactate dehydrogenase)
setup_conditions: enzymatic assay, ATP 500 μM

[
  {
    "smiles_entry": "Cc1nc(-c2cnc(NCC(C)(C)C)[nH]c2=O)ccc1Oc1ccnc(-c2cnn(C)c2)c1",
    "tested_target": "unphosphorylated c-FMS kinase (uFMS, Seq. ID no. 1) (Homo sapiens, UniProt P07333)",
    "IC50": "< 10 nM"
  },
  {
    "smiles_entry": "Cc1nc(-c2cnc(NC(C)(C)C)[nH]c2=O)ccc1Oc1ccnc(-c2cnn(C)c2)c1",
    "tested_target": "unphosphorylated c-FMS kinase (uFMS, Seq. ID no. 1) (Homo sapiens, UniProt P07333)",
    "IC50": "< 10 nM"
  },
  {
    "smiles_entry": "COC[C@H]1CCCN1c1ncc(-c2ccc(Oc3ccnc(-c4cnn(C)c4)c3)c(C)n2)c(=O)[nH]1",
    "tested_target": "unphosphorylated c-FMS kinase (uFMS, Seq. ID no. 1) (Homo sapiens, UniProt P07333)",
    "IC50": "10 to 100 nM"
  },
  {
    "smiles_entry": "COC[C@@H](C)Nc1ncc(-c2ccc(Oc3ccnc(-c4cnn(C)c4)c3)c(C)n2)c(=O)[nH]1",
    "tested_target": "unphosphorylated c-FMS kinase (uFMS, Seq. ID no. 1) (Homo sapiens, UniProt P07333)",
    "IC50": "10 to 100 nM"
  },
  {
    "smiles_entry": "Cc1nc(-c2cnc(N3CCC(F)(F)C3)[nH]c2=O)ccc1Oc1ccnc(-c2cnn(C)c2)c1",
    "tested_target": "unphosphorylated c-FMS kinase (uFMS, Seq. ID no. 1) (Homo sapiens, UniProt P07333)",
    "IC50": "10 to 100 nM"
  },
  {
    "smiles_entry": "CCNc1ncc(-c2ccc(Oc3ccnc(-c4cnn(C)c4)c3)c(C)n2)c(=O)n1C",
    "tested_target": "unphosphorylated c-FMS kinase (uFMS, Seq. ID no. 1) (Homo sapiens, UniProt P07333)",
    "IC50": "10 to 100 nM"
  },
  {
    "smiles_entry": "Cc1nc(-c2cnc(N3CC[C@H](N(C)C)C3)[nH]c2=O)ccc1Oc1ccnc(-c2cnn(C)c2)c1",
    "tested_target": "unphosphorylated c-FMS kinase (uFMS, Seq. ID no. 1) (Homo sapiens, UniProt P07333)",
    "IC50": "100 to 1000 nM"
  }
]
